Source of measurements: patent US8835502B2

systemName: total histone deacetylation in a HeLa nuclear extract
experimentalProtocol: Histone deacetylase assay (BioMol AK500 kit), HeLa nuclear extract
Type: biochemical
cond: HeLa nuclear extract; read-out: IC50, total histone deacetylation inhibition (converted)
quantityKind: IC50 (µM)

{"compound": "Nc1ccccc1NC(=O)CCCCCC(=O)Nc1ccccc1 [Compound 4b]", "IC50 / µM": 78}

(a) COc1ccccc1NC(=O)CCCCCCC(=O)Nc1ccccc1 [Compound 9c]
(b) O=C(CCCCCC(=O)Nc1cnc2ccccc2c1)Nc1ccccc1 [Compound 12b]
(c) Nc1ccccc1NC(=O)CCCCCC(=O)Nc1ccccc1N [Compound 16b, N^1,N^7-Bis(2-aminophenyl)heptanediamide]
Ask: List the 3 entries from lowest IC50 to highest IC50 value. Labels, requested order.
Reply: c, b, a
(c: 14 µM, b: 84 µM, a: 470 µM)

###

System: frataxin mRNA in affected GM15850 cells
experimentalProtocol: Frataxin mRNA by real-time quantitative RT-PCR in FRDA lymphoid cell line GM15850
Format: cell-based, human
cond: Homo sapiens, GM15850, 96 h, affected GM15850 cells, 5 μM, 96 h, normalized to GAPDH mRNA, relative to untreated control cells; read-out: Fold-change of frataxin mRNA
Listing of entries alongside the reported fold induction at 5 µM.
Give the figure only, with no unit attached.

Answered cases to consult:
{"compound": "COc1ccc(NC(=O)CCCCCC(=O)Nc2ccccc2)c(OC)c1 [Compound 15b]", "quantityKind": "fold induction at 5 µM", "value": 1.5}
{"compound": "COc1ccc(NC(=O)CCCCCC(=O)Nc2ccccc2)cc1 [Compound 10b]", "quantityKind": "fold induction at 5 µM", "value": 2.5}
{"compound": "O=C(CCCCCCC(=O)Nc1ccccn1)Nc1ccccc1 [Compound 8c]", "quantityKind": "fold induction at 5 µM", "value": 2}
{"compound": "O=C(CCCCCC(=O)Nc1ccccn1)Nc1ccccc1 [Compound 8b]", "quantityKind": "fold induction at 5 µM", "value": 2.6}
{"compound": "Nc1cccc(NC(=O)CCCCCCC(=O)Nc2ccccc2)c1 [Compound 6c]", "quantityKind": "fold induction at 5 µM", "value": 2.1}
{"compound": "COc1cccc(NC(=O)CCCCCC(=O)Nc2ccccc2)c1 [Compound 14b]", "quantityKind": "fold induction at 5 µM", "value": 1.8}
{"compound": "O=C(CCCCCC(=O)Nc1cccc2cccnc12)Nc1ccccc1 [Compound 11b]", "quantityKind": "fold induction at 5 µM", "value": 3}
{"compound": "Nc1ccccc1NC(=O)CCCCC(=O)Nc1ccccc1 [Compound 4a]", "quantityKind": "fold induction at 5 µM", "value": 1.4}

Ask: Name the recorded fold induction at 5 µM of the compound listed here: COc1ccccc1NC(=O)CCCCCC(=O)Nc1ccccc1 [Compound 9b]
Reply: 2.3

Ask: Name the recorded fold induction at 5 µM of the compound listed here: O=C(CCCCCC(=O)Nc1cnc2ccccc2c1)Nc1ccccc1 [Compound 12b]
Reply: 2.5

Ask: Name the recorded fold induction at 5 µM of the compound listed here: Nc1ccccc1NC(=O)CCCCCC(=O)Nc1ccccc1N [Compound 16b, N^1,N^7-Bis(2-aminophenyl)heptanediamide]
Reply: 3.1

Ask: Name the recorded fold induction at 5 µM of the compound listed here: COc1ccccc1NC(=O)CCCCCCC(=O)Nc1ccccc1 [Compound 9c]
Reply: 1.8

Ask: Name the recorded fold induction at 5 µM of the compound listed here: Nc1ccc(NC(=O)CCCCCCC(=O)Nc2ccccc2)cc1 [Compound 7c]
Reply: 2

Ask: Name the recorded fold induction at 5 µM of the compound listed here: Nc1ccc(NC(=O)CCCCCC(=O)Nc2ccccc2)cc1 [Compound 7b]
Reply: 2.6

Ask: Name the recorded fold induction at 5 µM of the compound listed here: Nc1ccccc1NC(=O)CCCCCCC(=O)Nc1ccccc1 [Compound 4c]
Reply: 1.4

Ask: Name the recorded fold induction at 5 µM of the compound listed here: Nc1cccc(NC(=O)CCCCCC(=O)Nc2ccccc2)c1 [Compound 6b]
Reply: 1.5
